# Target Of Assay: IRAK-4 enzyme (Homo sapiens, UniProt Q9NWZ3)
# Construct: purchased Millipore, USA
# Sequence (Q9NWZ3 whole entry): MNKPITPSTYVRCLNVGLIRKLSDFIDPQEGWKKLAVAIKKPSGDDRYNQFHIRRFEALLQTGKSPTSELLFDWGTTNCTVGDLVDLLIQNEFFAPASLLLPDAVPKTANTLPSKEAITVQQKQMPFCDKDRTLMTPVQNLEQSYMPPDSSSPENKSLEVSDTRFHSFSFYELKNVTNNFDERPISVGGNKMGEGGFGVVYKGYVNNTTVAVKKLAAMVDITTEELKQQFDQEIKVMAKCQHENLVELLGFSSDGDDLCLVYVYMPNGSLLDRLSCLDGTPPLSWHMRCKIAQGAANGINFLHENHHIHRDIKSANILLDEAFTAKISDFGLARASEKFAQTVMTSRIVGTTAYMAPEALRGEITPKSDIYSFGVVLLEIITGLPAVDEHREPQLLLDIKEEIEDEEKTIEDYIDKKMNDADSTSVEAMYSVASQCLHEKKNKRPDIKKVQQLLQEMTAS
# Procedure Text: IRAK-4 Biochemical Assay (TR-FRET)
# Experimental Context: 1 μM compound, recombinant IRAK-4 kinase, 20 μM ATP
Where a name gives a salt, the structure may show the parent alone.
Measured Metric: inhibition at 1 µM (%)

- Molecule: "CCOCC1CCN(c2cc3c(cc2NC(=O)c2coc(-c4ccnc(N)c4)n2)c(C)nn3C)CC1"
  Result Units: "%"
  Number: 96
- Molecule: "Cn1cc2cc(NC(=O)c3cccc(N4CC[C@H](O)C4)n3)c(N3CCCCC3)nc2n1"
  Result Units: "%"
  Number: 94
- Molecule: "Cn1cc2cc(NC(=O)c3cccc(-c4ccnc(N)c4)n3)c(N3CCOCC3)cc2n1 [Example 50, hydrochloride]"
  Result Units: "%"
  Number: 95
- Molecule: "Cn1cc2cc(NC(=O)c3cccc(N4CCC(O)C4)n3)c(N3CCOCC3)cc2n1 (centres unmarked)"
  Result Units: "%"
  Number: 96
- Molecule: "Cn1cc2cc(NC(=O)c3cc(N4CCC(O)C4)ccn3)c(C3CC3)cc2n1 (centres unmarked) [Example 71, hydrochloride]"
  Result Units: "%"
  Number: 95
- Molecule: "Cn1cc2cc(NC(=O)c3coc(N4CC[C@H](N)C4)n3)c(N3CCCCC3)nc2n1"
  Result Units: "%"
  Number: 90
- Molecule: "O=C(Nc1cc2cnn(C3CCNCC3)c2cc1C1CC1)c1cccc(N2CCC(O)C2)n1 (centres unmarked) [Example 32, hydrochloride]"
  Result Units: "%"
  Number: 80
- Molecule: "Cn1cc2cc(NC(=O)c3cncc(N4CCC(O)C4)n3)c(C3CC3)cc2n1 (centres unmarked) [Example 66, hydrochloride]"
  Result Units: "%"
  Number: 75

Reference source for all entries: patent US20180201609A1
